Each entry below lists one item and its recorded GI50 value.
Target: Ba/F3 EGFR-Del19/T790M/C797S (Homo sapiens, UniProt P00533, T790M/C797S, cells depend on it, form not given)
Sequence (P00533 with tags, fused parts or gaps DEL746-750/T790M/C797S, form open): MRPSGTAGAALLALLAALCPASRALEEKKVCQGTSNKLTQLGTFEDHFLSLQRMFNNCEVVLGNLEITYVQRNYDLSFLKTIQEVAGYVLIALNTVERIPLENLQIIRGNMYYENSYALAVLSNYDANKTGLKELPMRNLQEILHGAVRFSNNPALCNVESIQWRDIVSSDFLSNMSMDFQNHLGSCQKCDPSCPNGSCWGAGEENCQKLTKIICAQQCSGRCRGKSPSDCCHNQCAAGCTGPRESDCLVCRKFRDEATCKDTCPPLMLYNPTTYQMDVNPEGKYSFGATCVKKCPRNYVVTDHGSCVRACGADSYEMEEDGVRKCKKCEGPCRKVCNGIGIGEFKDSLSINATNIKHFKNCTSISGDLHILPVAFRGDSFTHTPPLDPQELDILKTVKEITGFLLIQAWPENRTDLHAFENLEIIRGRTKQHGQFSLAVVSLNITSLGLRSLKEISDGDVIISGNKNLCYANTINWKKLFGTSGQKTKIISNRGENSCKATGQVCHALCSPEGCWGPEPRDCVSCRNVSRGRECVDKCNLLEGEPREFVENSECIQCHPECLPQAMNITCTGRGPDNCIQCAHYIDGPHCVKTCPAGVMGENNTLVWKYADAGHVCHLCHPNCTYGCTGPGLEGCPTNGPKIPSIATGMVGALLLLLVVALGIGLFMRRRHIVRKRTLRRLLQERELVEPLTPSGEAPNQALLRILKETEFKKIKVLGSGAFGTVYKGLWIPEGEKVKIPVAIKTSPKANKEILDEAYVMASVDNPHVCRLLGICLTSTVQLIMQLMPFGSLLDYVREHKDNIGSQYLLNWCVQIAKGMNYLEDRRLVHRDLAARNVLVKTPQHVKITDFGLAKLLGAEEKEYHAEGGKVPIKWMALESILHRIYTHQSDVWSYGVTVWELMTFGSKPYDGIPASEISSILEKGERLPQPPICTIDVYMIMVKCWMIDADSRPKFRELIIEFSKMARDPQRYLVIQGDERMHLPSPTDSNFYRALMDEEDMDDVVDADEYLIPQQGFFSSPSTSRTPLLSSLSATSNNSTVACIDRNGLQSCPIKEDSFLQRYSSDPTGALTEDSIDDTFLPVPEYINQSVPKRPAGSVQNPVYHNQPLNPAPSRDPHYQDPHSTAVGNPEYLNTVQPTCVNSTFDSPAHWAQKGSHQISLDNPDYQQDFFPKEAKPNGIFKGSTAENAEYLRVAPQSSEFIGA
Test: Ba/F3 viability assay (CellTiter-Glo), DTC
Format: cell-based
Settings: anti-proliferation, read-out: BaF3 DTC IC50

Sample answers from the record:
- COMPOUND: "CCn1cc(-c2nn3c4cc(ncc24)Nc2ccnc(n2)-c2cnn(C)c2OCCC3C)cc1CN1CCN(C(C)C)CC1 (stereo not shown)"
  GI50: "< 10 nM"
- COMPOUND: "C[C@H]1CCOc2c(cnn2C)-c2nccc(n2)Nc2cc3c(cn2)c(-c2ncc(CN4CCN(C)CC4)s2)nn31"
  GI50: "< 10 nM"
- COMPOUND: "CN1CCN(CC2CCCN2c2nn3c4cc(ncc24)Nc2ccnc(n2)-c2cnn(C)c2OCCC3)CC1 (stereo not shown)"
  GI50: "100 to 1000 nM"

Okay, next one:
**Query** Given CC1CCCOc2c(cnn2C)-c2nccc(n2)Nc2cc3c(cn2)c(-c2nnc(CN4CCN(C)CC4)o2)nn31 (stereo not shown) , state its recorded GI50.
**Result** 100 to 1000 nM

---

Target: Ba/F3 EGFR-Del19/C797S (Homo sapiens, UniProt P00533, C797S, cells depend on it, form not given)
Sequence (P00533 with tags, fused parts or gaps DEL746-750/C797S, form open): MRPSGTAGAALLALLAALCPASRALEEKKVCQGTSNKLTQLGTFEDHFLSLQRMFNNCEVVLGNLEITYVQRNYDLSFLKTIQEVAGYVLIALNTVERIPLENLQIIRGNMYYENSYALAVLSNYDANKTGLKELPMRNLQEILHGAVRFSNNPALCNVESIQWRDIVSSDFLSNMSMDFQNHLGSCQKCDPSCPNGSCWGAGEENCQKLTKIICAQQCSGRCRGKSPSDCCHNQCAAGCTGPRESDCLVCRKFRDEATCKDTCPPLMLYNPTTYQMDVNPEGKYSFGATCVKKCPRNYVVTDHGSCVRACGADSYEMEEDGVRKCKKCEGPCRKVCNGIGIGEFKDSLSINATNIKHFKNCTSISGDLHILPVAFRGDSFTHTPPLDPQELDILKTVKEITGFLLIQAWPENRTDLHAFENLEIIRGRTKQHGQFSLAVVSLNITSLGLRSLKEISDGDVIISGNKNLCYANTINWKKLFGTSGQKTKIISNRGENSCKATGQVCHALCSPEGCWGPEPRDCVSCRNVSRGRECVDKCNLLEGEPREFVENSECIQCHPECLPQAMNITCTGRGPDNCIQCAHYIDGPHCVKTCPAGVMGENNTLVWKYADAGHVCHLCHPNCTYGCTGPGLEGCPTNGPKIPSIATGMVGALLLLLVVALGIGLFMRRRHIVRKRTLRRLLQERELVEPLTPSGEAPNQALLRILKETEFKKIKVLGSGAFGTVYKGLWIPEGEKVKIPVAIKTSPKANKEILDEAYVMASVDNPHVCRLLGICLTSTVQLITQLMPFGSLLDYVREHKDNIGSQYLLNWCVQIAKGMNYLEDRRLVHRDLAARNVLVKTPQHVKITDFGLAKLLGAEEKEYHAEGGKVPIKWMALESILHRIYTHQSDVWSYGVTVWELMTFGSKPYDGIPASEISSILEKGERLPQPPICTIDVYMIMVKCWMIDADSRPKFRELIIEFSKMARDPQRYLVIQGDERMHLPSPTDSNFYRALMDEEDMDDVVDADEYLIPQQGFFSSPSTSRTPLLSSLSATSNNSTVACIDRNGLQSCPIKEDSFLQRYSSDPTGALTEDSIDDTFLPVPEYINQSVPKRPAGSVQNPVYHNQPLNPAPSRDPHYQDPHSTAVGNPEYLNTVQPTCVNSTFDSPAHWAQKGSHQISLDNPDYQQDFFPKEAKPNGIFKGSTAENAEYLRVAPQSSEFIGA
Experiment: Ba/F3 viability assay (CellTiter-Glo), DC
Assay type: cell-based
Conditions: anti-proliferation, read-out: BaF3 DC IC50
Each entry below lists one item and its recorded GI50 value.

Sample answers from the record:
- COMPOUND: "C[C@H]1CCOc2c(cnn2C)-c2nccc(n2)Nc2cc3c(cn2)c(-c2cccc(N4CCC(N(C)C)CC4)c2)nn31"
  GI50: "10 to 100 nM"
- COMPOUND: "CC1CCCOc2c(cnn2C)-c2nccc(n2)Nc2cc3c(cn2)c(-c2cc(CN4CCN(C)CC4)nn2C)nn31 (stereo not shown)"
  GI50: "100 to 1000 nM"
- COMPOUND: "CCN1CCc2c(cc(-c3nn4c5cc(ncc35)Nc3ccnc(n3)-c3cnn(C)c3OCC[C@@H]4C)n2C)C1C (stereo partly shown)"
  GI50: "10 to 100 nM"
- COMPOUND: "CCN(CC)CCOc1cc(F)cc(-c2nn3c4cc(ncc24)Nc2ccnc(n2)-c2cnn(C)c2OCC[C@@H]3C)c1"
  GI50: "10 to 100 nM"

**Query** Given CCC1CCOc2c(cnn2C)-c2nccc(n2)Nc2cc3c(cn2)c(N2CCC2)nn31 (stereo not shown) , state its recorded GI50.
**Result** 10 to 100 nM

**Query** Given "CCN(CC)C1CCN(c2cc(F)cc(-c3nn4c5cc(ncc35)Nc3ccnc(n3)-c3cnn(C)c3OCC[C@@H]4C)c2)CC1" , state its recorded GI50.
**Result** 10 to 100 nM

**Query** Given "C[C@H]1CCOc2c(cnn2C)-c2nccc(n2)Nc2cc3c(cn2)c(N2CC[C@H](N(C)C)C2)nn31" , state its recorded GI50.
**Result** 10 to 100 nM

---

Biological target: Ba/F3 EGFR-Del19/T790M (Homo sapiens, UniProt P00533, T790M, cells depend on it, form not given)
Sequence (P00533 with tags, fused parts or gaps DEL746-750/T790M, form open): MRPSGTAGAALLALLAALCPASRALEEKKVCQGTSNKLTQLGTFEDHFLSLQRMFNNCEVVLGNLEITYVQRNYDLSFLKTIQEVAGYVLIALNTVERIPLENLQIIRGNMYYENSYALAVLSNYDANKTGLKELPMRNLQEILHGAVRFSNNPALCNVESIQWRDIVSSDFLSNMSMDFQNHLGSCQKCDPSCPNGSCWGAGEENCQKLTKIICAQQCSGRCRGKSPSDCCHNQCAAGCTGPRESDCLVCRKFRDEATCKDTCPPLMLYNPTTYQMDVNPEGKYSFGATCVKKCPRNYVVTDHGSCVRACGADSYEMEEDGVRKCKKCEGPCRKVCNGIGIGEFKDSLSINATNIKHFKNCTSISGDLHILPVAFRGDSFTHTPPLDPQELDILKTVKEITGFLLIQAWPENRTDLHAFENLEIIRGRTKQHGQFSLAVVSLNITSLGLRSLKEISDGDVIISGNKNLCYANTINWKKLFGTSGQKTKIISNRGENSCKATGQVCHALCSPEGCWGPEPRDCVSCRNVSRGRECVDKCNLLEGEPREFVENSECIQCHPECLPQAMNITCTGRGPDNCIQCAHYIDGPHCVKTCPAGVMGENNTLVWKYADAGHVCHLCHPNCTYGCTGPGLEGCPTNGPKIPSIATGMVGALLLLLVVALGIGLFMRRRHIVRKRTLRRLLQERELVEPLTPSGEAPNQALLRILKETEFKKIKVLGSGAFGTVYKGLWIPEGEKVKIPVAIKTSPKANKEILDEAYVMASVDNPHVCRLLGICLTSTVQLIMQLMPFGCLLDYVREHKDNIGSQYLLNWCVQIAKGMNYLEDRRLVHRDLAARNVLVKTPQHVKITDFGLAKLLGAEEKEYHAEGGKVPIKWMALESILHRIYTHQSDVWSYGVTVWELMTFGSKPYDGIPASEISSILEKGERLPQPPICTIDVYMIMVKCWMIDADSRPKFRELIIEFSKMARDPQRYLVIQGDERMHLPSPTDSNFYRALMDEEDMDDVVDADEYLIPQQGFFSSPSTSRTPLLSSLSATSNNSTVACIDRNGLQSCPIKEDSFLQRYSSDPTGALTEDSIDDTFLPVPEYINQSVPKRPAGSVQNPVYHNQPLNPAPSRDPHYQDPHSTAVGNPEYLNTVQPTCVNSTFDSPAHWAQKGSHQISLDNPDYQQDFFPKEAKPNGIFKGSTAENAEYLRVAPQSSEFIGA
Assay: Ba/F3 viability assay (CellTiter-Glo), DT
Assay type: cell-based
Settings: anti-proliferation, read-out: BaF3 DT IC50
Source text: Inhibition of cell proliferation can be studied using Ba/F3 viability assays, including the Promega CellTiter-Glo cell viability assay. This assay can be used to study the effect of compounds described herein in the following assays: (1) Ba/F3 Parental; (2) Ba/F3 EGFR-Del19/T790M; (3); Ba/F3 EGFR-Del19/C797S; and (4) Ba/F3 EGFR-Del19/T790M/C797S.
MEASUREMENT TYPE: GI50

- MOLECULE: "C[C@@H]1CCCOc2c(cnn2C)-c2nccc(n2)Nc2cc3c(cn2)c(N2CCC2)nn31 [(77)]"
  GI50: "≥ 1000 nM"
- MOLECULE: "CCN(CC)CCOc1cc(-c2nn3c4cc(ncc24)Nc2ccnc(n2)-c2cnn(C)c2OCC[C@@H]3C)ccc1Cl [(153)]"
  GI50: "10 to 100 nM"
- MOLECULE: "CCn1nccc1-c1nn2c3cc(ncc13)Nc1ccnc(n1)-c1cnn(C)c1OCCCC2C (stereo not shown) [(86)]"
  GI50: "10 to 100 nM"

**Query** Given C[C@H]1CCOc2c(cnn2C)-c2nccc(n2)Nc2cc3c(cn2)c(-c2cc(CN4CCOCC4)n(C)n2)nn31 [(105)] , state its recorded GI50.
**Result** < 10 nM

**Query** Given CC1CCOc2c(cnn2CC2CC2)-c2nccc(n2)Nc2cc3c(cn2)c(N2CCC2)nn31 (stereo not shown) [(2)] , state its recorded GI50.
**Result** 10 to 100 nM

---

Target: Ba/F3 EGFR-Del19/T790M/C797S (Homo sapiens, UniProt P00533, T790M/C797S, cells depend on it, form not given)
Test: Ba/F3 viability assay (CellTiter-Glo), DTC
Type: cell-based
Conditions: anti-proliferation, read-out: BaF3 DTC IC50
MEASUREMENT TYPE: GI50

Sample answers from the record:
- COMPOUND: "C[C@H]1CCOc2c(cnn2C)-c2nccc(n2)Nc2cc3c(cn2)c(-c2cc4c(n2C)CCCN(C)C4)nn31 [(185)]"
  GI50: "10 to 100 nM"
- COMPOUND: "Cn1ncc2c1OCCCn1nc(N3CCCC3C(=O)O)c3cnc(cc31)Nc1ccnc-2n1 (centres unmarked) [(65)]"
  GI50: "100 to 1000 nM"
- COMPOUND: "CC1CCOc2c(cnn2C)-c2nccc(n2)Nc2cc3c(cn2)c(-c2cnn(C4CC4)c2)nn31 (centres unmarked) [(64)]"
  GI50: "10 to 100 nM"

Okay, next one:
**Query** Given Cc1cc(-c2nn3c4cc(ncc24)Nc2ccnc(n2)-c2cnn(C)c2OCC[C@@H]3C)oc1CN(C)C [(168)] , state its recorded GI50.
**Result** < 10 nM

---

Each entry below lists one item and its recorded GI50 value.
Target: Ba/F3 EGFR-Del19/T790M/C797S (Homo sapiens, UniProt P00533, T790M/C797S, cells depend on it, form not given)
Assay: Ba/F3 viability assay (CellTiter-Glo), DTC
Format: cell-based
Settings: anti-proliferation, read-out: BaF3 DTC IC50

Sample answers from the record:
- COMPOUND: "CN(C)CC1CCN(c2nn3c4cc(ncc24)Nc2ccnc(n2)-c2cnn(C)c2OCCC3)C1 (stereo not shown)"
  GI50: "10 to 100 nM"
- COMPOUND: "CCCN1CCN(Cc2ccc(-c3nn4c5cc(ncc35)Nc3ccnc(n3)-c3cnn(C)c3OCC[C@@H]4C)n2C)CC1"
  GI50: "< 10 nM"
- COMPOUND: "C[C@H]1CCOc2c(cnn2C)-c2nccc(n2)Nc2cc3c(cn2)c(-c2ccc(CN4CCN(C)CC4)cc2)nn31"
  GI50: "< 10 nM"
- COMPOUND: "COC(=O)C1CCCN1c1nn2c3cc(ncc13)Nc1ccnc(n1)-c1cnn(C)c1OCCC2 (stereo not shown)"
  GI50: "100 to 1000 nM"
- COMPOUND: "CCn1cc(-c2nn3c4cc(ncc24)Nc2ccnc(n2)-c2cnn(C)c2OCCC3C)cc1CN1CCN(C)CC1 (stereo not shown)"
  GI50: "< 10 nM"

**Query** Given CC1CCOc2c(cnn2C)-c2nccc(n2)Nc2cc3c(cn2)c(-c2cccn2CCN(C)C)nn31 (stereo not shown) , state its recorded GI50.
**Result** 10 to 100 nM

**Query** Given "C[C@H]1CCOc2c(cnn2C)-c2nccc(n2)Nc2cc3c(cn2)c(-c2cccc(OCCN4CCOCC4)c2)nn31" , state its recorded GI50.
**Result** < 10 nM

**Query** Given "C[C@H]1CCOc2c(cnn2C)-c2nccc(n2)Nc2cc3c(cn2)c(-c2cnn(CCN(C)C)c2)nn31" , state its recorded GI50.
**Result** 10 to 100 nM

**Query** Given "C[C@H]1CCOc2c(cnn2C)-c2nccc(n2)Nc2cc3c(cn2)c(N2CC[C@@H](CN(C)CCF)C2)nn31" , state its recorded GI50.
**Result** < 10 nM

**Query** Given "CCN(CC)CCn1cc(-c2nn3c4cc(ncc24)Nc2ccnc(n2)-c2cnn(C)c2OCC[C@@H]3C)cn1" , state its recorded GI50.
**Result** < 10 nM

**Query** Given CCC1CCOc2c(cnn2C)-c2nccc(n2)Nc2cc3c(cn2)c(N2CCC2)nn31 (stereo not shown) , state its recorded GI50.
**Result** 10 to 100 nM

**Query** Given "C[C@H]1CCOc2c(cnn2C)-c2nccc(n2)Nc2cc3c(cn2)c(-c2cn(C)cn2)nn31" , state its recorded GI50.
**Result** 10 to 100 nM

**Query** Given "CCCn1cc(-c2nn3c4cc(ncc24)Nc2ccnc(n2)-c2cnn(C)c2OCC[C@@H]3C)cc1CN1CCOCC1" , state its recorded GI50.
**Result** < 10 nM

**Query** Given "C[C@H]1CCOc2c(cnn2C)-c2nccc(n2)Nc2cc3c(cn2)c(N2CC[C@H](N(C)CCCF)C2)nn31" , state its recorded GI50.
**Result** < 10 nM

**Query** Given "C[C@H]1CCOc2c(cnn2C)-c2nccc(n2)Nc2cc3c(cn2)c(N2CC[C@H](O)C2)nn31" , state its recorded GI50.
**Result** < 10 nM

**Query** Given "Cn1ncc2c1OCCC(C)(C)n1nc(N3CCC3)c3cnc(cc31)Nc1ccnc-2n1" , state its recorded GI50.
**Result** 100 to 1000 nM
